target_under_test: HLA-B*48:01
assay_remarks: IEDB peptide-MHC binding, purified MHC/direct/fluorescence; filed as Kd, often an IC50 or EC50 that approximates it; bounds were set here for any values at or beyond the usual limits of such assays
assay_setup: source organism: Mammarenavirus lassaense
reported_property: Kd

Lab note: QLDQRRALL gave Kd of ≥ 20 µM

###

target_under_test: HLA-B*08:03
assay_remarks: IEDB peptide-MHC binding, purified MHC/direct/fluorescence; filed as Kd, often an IC50 or EC50 that approximates it; bounds were set here for any values at or beyond the usual limits of such assays
assay_setup: source organism: Ravn virus - Ravn, Kenya, 1987
pKd: −log10 of the molar value.
reported_property: pKd

Value (pKd, HLA-B*08:03) for record GFPSLESSF = ≤ 4.70

###

target_under_test: HLA-B*15:01
assay_remarks: IEDB peptide-MHC binding, purified MHC/direct/fluorescence; filed as Kd, often an IC50 or EC50 that approximates it; bounds were set here for any values at or beyond the usual limits of such assays
assay_setup: source organism: Mammarenavirus lassaense
reported_property: Kd (nM)
Give bare numbers, in nM.

Lab note: KQFKQDAKY gave Kd of 173

###

target_under_test: HLA-B*15:01
assay_remarks: IEDB peptide-MHC binding, purified MHC/direct/fluorescence; filed as Kd, often an IC50 or EC50 that approximates it; bounds were set here for any values at or beyond the usual limits of such assays
assay_setup: source organism: dengue virus type 3
reported_property: Kd (nM)
Numbers only, in nM.

Lab note: TSEHGGRAY gave Kd of 248

###

target_under_test: HLA-A*68:23
assay_remarks: IEDB peptide-MHC binding, purified MHC/competitive/fluorescence; filed as Kd, often an IC50 or EC50 that approximates it; bounds were set here for any values at or beyond the usual limits of such assays
assay_setup: source organism: Rickettsia bellii RML369-C
reported_property: Kd (nM)
Answers are plain numbers, in nM.

Lab note: FAYKTGSSM gave Kd of 51.2

###

target_under_test: HLA-A*11:01
assay_remarks: IEDB peptide-MHC binding, purified MHC/direct/fluorescence; filed as Kd, often an IC50 or EC50 that approximates it; bounds were set here for any values at or beyond the usual limits of such assays
assay_setup: source organism: dengue virus type 3
reported_property: Kd

Lab note: TSEHGGRAY gave Kd of ≥ 20 µM

###

target_under_test: HLA-A*68:01
assay_remarks: IEDB peptide-MHC binding, purified MHC/competitive/radioactivity; filed as Kd, often an IC50 or EC50 that approximates it; bounds were set here for any values at or beyond the usual limits of such assays
assay_setup: source organism: Dengue virus 4 Philippines/H241/1956
reported_property: pKd
Numbers only, as −log10 of the molar value.

residues=FTTRLLSSTR target_under_test=HLA-A*68:01 test_value=7.59

Lab note: MVLAFITFLR gave pKd of 7.76

###

target_under_test: HLA-B*53:01
assay_remarks: IEDB peptide-MHC binding, purified MHC/competitive/radioactivity; filed as Kd, often an IC50 or EC50 that approximates it; bounds were set here for any values at or beyond the usual limits of such assays
assay_setup: source organism: Dengue virus 2 Jamaica/1409/1983
pKd: −log10 of the molar value.
Quick rule for you: pKd at 7 or higher means Condition met, lower means Condition not met.

pKd >= 7 for TPEGIIPSMF ? Condition not met

pKd >= 7 for QPHWIAASI ? Condition met

pKd >= 7 for LTSSQQKADW ? Condition not met

pKd >= 7 for QPTELKYSW ? Condition met

###

target_under_test: HLA-A*26:01
assay_remarks: IEDB peptide-MHC binding, purified MHC/direct/fluorescence; filed as Kd, often an IC50 or EC50 that approximates it; bounds were set here for any values at or beyond the usual limits of such assays
assay_setup: source organism: Escherichia coli O157:H7 str. EC869
reported_property: Kd

Lab note: SQFNHWFGE gave Kd of ≥ 20 µM

###

target_under_test: HLA-B*15:01
assay_remarks: IEDB peptide-MHC binding, purified MHC/competitive/radioactivity; filed as Kd, often an IC50 or EC50 that approximates it; bounds were set here for any values at or beyond the usual limits of such assays
assay_setup: source organism: Vaccinia virus WR
reported_property: Kd

Solved cases (5 shown):
residues=SSRRYRCSF target_under_test=HLA-B*15:01 reported_property=Kd test_value="682 nM"
residues=RSANTSAPF target_under_test=HLA-B*15:01 reported_property=Kd test_value="0.681 nM"
residues=FIKNKIHLL target_under_test=HLA-B*15:01 reported_property=Kd test_value="97.7 nM"
residues=MENVYISSY target_under_test=HLA-B*15:01 reported_property=Kd test_value="1.97 nM"
residues=LACYRFVKF target_under_test=HLA-B*15:01 reported_property=Kd test_value="146 nM"

Hello, I would appreciate it if you could give Kd for each entry below.
1. LMNNLDTLF
2. NLLCHIYSL
3. MMSMYGKAF
4. MYKKAEASF
5. NMIKMFSQI

1: 86.4 nM; 2: 1930 nM; 3: 3.18 nM; 4: 69.3 nM; 5: 354 nM

Hello, I would appreciate it if you could give Kd for each entry below.
1. FPKNDFVSF
2. RLYSEGLSI
3. RIRRFRRPM
4. LTISFFLIM
5. YSKLTSMHF
6. FINSTCYVF
7. LSIFFIVVA
8. KTSSFKISK

1. 10.4 nM
2. 4.53 nM
3. 36.2 nM
4. 7690 nM
5. 0.574 nM
6. 4.34 nM
7. 82.3 nM
8. ≥ 62200 nM

Hello, I would appreciate it if you could give Kd for each entry below.
1. SGIGTFLHY
2. EFINKFLEF
3. KIGMFNLTF

23.3 nM
359 nM
0.209 nM

Lab note: LSANLFESQ gave Kd of 45 nM

###

target_under_test: HLA-A*02:03
assay_remarks: IEDB peptide-MHC binding, purified MHC/competitive/radioactivity; filed as Kd, often an IC50 or EC50 that approximates it; bounds were set here for any values at or beyond the usual limits of such assays
assay_setup: source organism: Lassa virus Josiah
reported_property: Kd (nM)
Answers are plain numbers, in nM.

Lab note: LIALSVLAV gave Kd of 2.63

###

target_under_test: HLA-A*31:01
assay_remarks: IEDB peptide-MHC binding, purified MHC/competitive/radioactivity; filed as Kd, often an IC50 or EC50 that approximates it; bounds were set here for any values at or beyond the usual limits of such assays
assay_setup: source organism: Lymphocytic choriomeningitis virus (strain Armstrong)
Field: pKd. Provide a value for each of the sequences that follow.
Answers are plain numbers, as −log10 of the molar value.

Solved cases (4 shown):
residues=RNPYENILYK target_under_test=HLA-A*31:01 test_value=4.79
residues=LMRFITAETH target_under_test=HLA-A*31:01 test_value=6.39
residues=GNFSWFPHK target_under_test=HLA-A*31:01 test_value=5.87
residues=SYQYLIIQNR target_under_test=HLA-A*31:01 test_value=9.02

Attention now turns to another entry.
Lab note: TYLGPLSCK gave pKd of 5.77

###

target_under_test: HLA-B*40:01
assay_remarks: IEDB peptide-MHC binding, purified MHC/direct/fluorescence; filed as Kd, often an IC50 or EC50 that approximates it; bounds were set here for any values at or beyond the usual limits of such assays
assay_setup: source organism: Collimonas fungivorans
reported_property: Kd

Lab note: AYSPFAFKK gave Kd of ≥ 20 µM

###

Field: pIC50. Provide a value for each of the sequences that follow.
target_under_test: HLA-A*25:01
assay_remarks: IEDB peptide-MHC binding, purified MHC/competitive/fluorescence; bounds were set here for any values at or beyond the usual limits of such assays
assay_setup: source organism: Homo sapiens
pIC50: −log10 of the molar value.

residues=GSSDFQVHFLK reported_property=pIC50 test_value="≤ 4.70"

Attention now turns to another entry.
Lab note: KVADVDLAVPV gave pIC50 of ≤ 4.70

###

target_under_test: HLA-A*02:16
assay_remarks: IEDB peptide-MHC binding, purified MHC/direct/fluorescence; filed as Kd, often an IC50 or EC50 that approximates it; bounds were set here for any values at or beyond the usual limits of such assays
assay_setup: source organism: Orthohantavirus tulaense
reported_property: Kd

Value (Kd, HLA-A*02:16) for record AESICSYWL = ≥ 20 µM

###

target_under_test: HLA-A*02:16
assay_remarks: IEDB peptide-MHC binding, purified MHC/direct/fluorescence; filed as Kd, often an IC50 or EC50 that approximates it; bounds were set here for any values at or beyond the usual limits of such assays
assay_setup: source organism: Vibrio cholerae V52
pKd: −log10 of the molar value.
reported_property: pKd

Lab note: LPYPVLLKI gave pKd of ≤ 4.70

###

target_under_test: HLA-B*40:13
assay_remarks: IEDB peptide-MHC binding, purified MHC/competitive/fluorescence; filed as Kd, often an IC50 or EC50 that approximates it; bounds were set here for any values at or beyond the usual limits of such assays
assay_setup: source organism: Kurkino virus
reported_property: pKd
One number for each entry, as −log10 of the molar value.

Lab note: SLYSGFPSL gave pKd of 6.80
